Target: Solute carrier family 15 member 1 (Homo sapiens)
Sequence (P46059 whole entry): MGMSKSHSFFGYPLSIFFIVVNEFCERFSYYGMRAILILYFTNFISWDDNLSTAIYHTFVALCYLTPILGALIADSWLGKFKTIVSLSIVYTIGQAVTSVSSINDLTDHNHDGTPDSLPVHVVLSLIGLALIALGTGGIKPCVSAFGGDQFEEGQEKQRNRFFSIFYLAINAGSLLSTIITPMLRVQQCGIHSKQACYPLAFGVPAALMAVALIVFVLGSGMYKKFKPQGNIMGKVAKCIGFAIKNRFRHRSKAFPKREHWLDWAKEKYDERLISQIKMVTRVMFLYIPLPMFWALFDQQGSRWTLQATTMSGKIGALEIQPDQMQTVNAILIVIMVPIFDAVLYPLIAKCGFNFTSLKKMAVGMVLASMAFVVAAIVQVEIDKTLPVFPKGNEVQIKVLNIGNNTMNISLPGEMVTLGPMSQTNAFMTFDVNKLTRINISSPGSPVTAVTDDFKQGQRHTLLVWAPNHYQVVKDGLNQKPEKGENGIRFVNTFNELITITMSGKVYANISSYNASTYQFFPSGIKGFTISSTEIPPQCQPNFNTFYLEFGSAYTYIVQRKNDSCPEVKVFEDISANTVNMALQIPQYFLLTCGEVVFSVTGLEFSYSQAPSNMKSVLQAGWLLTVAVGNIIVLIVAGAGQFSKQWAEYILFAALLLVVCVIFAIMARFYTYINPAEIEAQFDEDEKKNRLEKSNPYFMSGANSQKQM
Assay: Binding affinity to PEPT1 in human Caco2 cells assessed as inhibition of [14C]Gly-Sar apical uptake after 5 mins by liquid scintillation counting
Residues, ends and D or L forms follow the SMILES beside them.
Reported values of Ki for individual entries

Example entries and their recorded answers appear below.
compound: C[C@H](NC(=O)[C@H](CO)NC(=O)[C@@H](N)Cc1ccccc1)C(=O)O (H-Phe-Ser-Ala-OH)
Ki: 257 µM

compound: CCC[C@H](NC(=O)[C@H](COC(=O)c1ccccc1)CC(=O)[C@@H](N)Cc1ccccc1)C(=O)O
Ki: 251 µM

Moving on to another compound below.
Identify the reported Ki for the following entry. `C[C@H](NC(=O)[C@H](COC(=O)c1ccccc1)CC(=O)[C@@H](N)Cc1ccccc1)C(=O)O`
324 µM
